folding stability dG unfold: recorded values
- experiment: folding stability dG unfold (combined trypsin and chymotrypsin); higher = more stable
quantityKind: folding stability dG unfold (kcal/mol)

>>> observedmeasurement("MTPDDMKDPNGMPPEDMWMVEIYVPRRDPEDGGPKWKPVGTIFIPPGMDPEELNEIIEELPGLDLIEIYPMS [r1_132_TrROS]")
1.33
>>> observedmeasurement("SAGGSAGMTPVSEAVVPGPNVTTLTTYRDPSSSALITPVTTTPPDGVPVTTTTLDLGSSTVTLSTTSAGGSA [r15_993_JUSTAS]")
0.97
>>> observedmeasurement("SAGGWFTWDIPVKADDPKEAVDYAKEQIKNIMREHHPGMPPGMKIDDIKVEPPPNGWYWVKITIEIDPPSAG [r5_320_TrROS]")
2.29
>>> observedmeasurement("SAGGSLPADAEVTEVVEDPSKGVVTVKVTVRDSEGKVVEERTVVTPVEPVPPLSPENLKKNLLLTLLSAGGS [r16_697_JUSTAS]")
-0.741
>>> observedmeasurement("MSEKTFVVEVKVESPEEAEELIEKLKEKLSGEKYEVKIEKVEVSPDGTVKVHITFKPGVPEEFIKKALEEES [r1_485_TrMRF]")
2.7
>>> observedmeasurement("SAGGSAGGSAGGPKVEIVEVTVEGDKVTIRVKNEETGEWVTLEVTLKDLPKVTFVLKPKSAGGSAGGSAGGS [r10_655_TrROS_Hall]")
1.19

###

folding stability dG unfold overview
- experiment: folding stability dG unfold from trypsin proteolysis; higher = more stable
quantityKind: folding stability dG unfold (kcal/mol)

>>> observedmeasurement("VDPDDPEYQRFVYFVQELAKTIVEEHQEEGPTVDELYITVDPNNVKIEPVDMPPDEWEEHQKEGRPVIPIRS [r1_134_TrROS]")
0.179
>>> observedmeasurement("SAKITIFFPFDAVKEILDLLKENGVEVNIERHPGNPWYSATITRPDPNGKELPIEIMMFPDHGYVQITLSAG [r14_169_TrROS]")
2.65
>>> observedmeasurement("SSSGTDPLTVRVTVTLTDPSTGKETLLEYEVEVPPGTPVEVELPDVPPSASVTVEVYDPGGVRIGTRTLPSA [r9_478_JUSTAS]")
1.81
>>> observedmeasurement("SAGGSAGGSKKVKIIEIDLKDMSPEEILELIKKEKVDAIIIKSDTPEAKRLAEKLKEAGFKVISAGGSAGGS [r12_610_TrROS_Hall]")
1.46
>>> observedmeasurement("SAGGSIELPLEEGSTAEVELELRVPFYRLDANGRPVAPEERTLRIRARFTRLPDGRVLVEVEVEVESAGGSA [r2_154_TrMRF]")
4.46
>>> observedmeasurement("SAMKVTITVTKHTLPDGTPYYTVTITDPSTGKTFSGPVSSEEEAKATAQALADKIEAEGTPVTITFTDDSAG [r14_263_JUSTAS]")
3.97
>>> observedmeasurement("SAGGSAGGSAKAKVIKTEEFELPNGVRIRIEYIEVDGKLIEKVEIEIKAESEEQKKALEKASAGGSAGGSAG [r3_158_TrROS_Hall]")
1.29

###

The sequences listed here are annotated with their folding stability dG unfold.
- experiment: folding stability dG unfold from trypsin proteolysis; higher = more stable
quantityKind: folding stability dG unfold (kcal/mol)

>>> observedmeasurement("SAGGSAGGSAKKKILVKKPDGRLLLIEIDKDKPNTVRIYDIDTGKKIELSVEDLKKLKIKKSAGGSAGGSAG [r3_451_TrROS_Hall]")
1.57
>>> observedmeasurement("SAGMKPEEVRVIEIPPGMTVEEIIEAIEKEGPLRIRVEGKELEFESKEDIEAAIRNAPEPVRIEVRRLSAGG [r19_95_TrROS_Hall]")
0.865
>>> observedmeasurement("SAGGSAGGSAVKIKIEQLGPGYFHITIEQEMMYPDGKSRKMTMTMMFKVNAPPNDPALRELLSAGGSAGGSA [r18_215_TrROS]")
2.69
>>> observedmeasurement("SAGGSAAMVPPEELAERLAEELAAKEGREVTEVTVEVLDPERGVVRVTVTFRSPEGLSTRTVVVDLSAGGSA [r15_32_JUSTAS]")
3.24
